# procedure-details: XTT cytotoxicity assay on uninfected Hep2 cells
# Format: cell-based
# assay-context: human
Provide the reported CC50 at 48 h of each item.

[ask] Look at this compound and give its reported CC50 at 48 h. CC(C)N(C)Cc1nc2cccnc2n1Cc1nc2ccccc2[nH]1
[reply] ≥ 100 µM

[ask] Look at this compound and give its reported CC50 at 48 h. O=S(=O)(c1ccc(F)cc1F)N1CCN(Cc2nc3cccnc3n2Cc2nc3ccccc3[nH]2)CC1
[reply] ≥ 100 µM

[ask] Look at this compound and give its reported CC50 at 48 h. Cc1nn(C)c(Cl)c1S(=O)(=O)N1CCN(Cc2nc3cccnc3n2Cc2nc3ccccc3[nH]2)CC1
[reply] ≥ 100 µM

[ask] Look at this compound and give its reported CC50 at 48 h. O=C(c1ccco1)N1CCN(Cc2nc3cccnc3n2Cc2nc3ccccc3[nH]2)CC1
[reply] ≥ 100 µM

[ask] Look at this compound and give its reported CC50 at 48 h. c1ccc2c(c1)CN(Cc1nc3cccnc3n1Cc1nc3ccccc3[nH]1)C2
[reply] ≥ 100 µM

[ask] Look at this compound and give its reported CC50 at 48 h. c1ccc2[nH]c(Cn3c(CNCCCN4CCOCC4)nc4cccnc43)nc2c1
[reply] ≥ 100 µM

[ask] Look at this compound and give its reported CC50 at 48 h. c1ccc2[nH]c(Cn3c(CNC4CCCC4)nc4cccnc43)nc2c1
[reply] ≥ 100 µM

###

# Test system: RSV
# procedure-details: Antiviral assay (PRA): inhibition of RSV syncytial plaque formation on Hep2 cell monolayers
# Format: cell-based
# assay-context: human respiratory syncytial virus, HEp-2; Table 2; RSV-infected Hep2 cells, 48 hours, syncytia counted; read-out: PRA (IC50)
property-label: pIC50
Give only the number. pIC50 is defined as minus log10 of concentration in molar units.

[ask] Look at this compound and give its reported pIC50. c1ccc2[nH]c(Cn3c(CN4CCOCC4)nc4cccnc43)nc2c1
[reply] 9.00

[ask] Look at this compound and give its reported pIC50. Oc1cc2c(cc1O)CN(Cc1nc3cccnc3n1Cc1nc3ccccc3[nH]1)CC2
[reply] 7.89

[ask] Look at this compound and give its reported pIC50. O=C(Nc1ccc2c(c1)OCCCO2)N1CCN(Cc2nc3cccnc3n2Cc2nc3ccccc3[nH]2)CC1
[reply] 8.30

[ask] Look at this compound and give its reported pIC50. c1ccc2[nH]c(Cn3c(CN4CCNCC4)nc4cccnc43)nc2c1
[reply] 6.92

[ask] Look at this compound and give its reported pIC50. O=C(c1ccco1)N1CCN(Cc2nc3cccnc3n2Cc2nc3ccccc3[nH]2)CC1
[reply] 7.89

[ask] Look at this compound and give its reported pIC50. Cc1cc(S(=O)(=O)N2CCN(Cc3nc4cccnc4n3Cc3nc4ccccc4[nH]3)CC2)c(C)s1
[reply] 7.80

[ask] Look at this compound and give its reported pIC50. O=S(=O)(c1ccsc1)N1CCN(Cc2nc3cccnc3n2Cc2nc3ccccc3[nH]2)CC1
[reply] 8.00

[ask] Look at this compound and give its reported pIC50. Cc1nn(C)c(Cl)c1S(=O)(=O)N1CCN(Cc2nc3cccnc3n2Cc2nc3ccccc3[nH]2)CC1
[reply] 6.70

###

# System: RSV
# procedure-details: Antiviral assay (PRA): inhibition of RSV syncytial plaque formation on Hep2 cell monolayers
# Assay type: cell-based
# assay-context: human respiratory syncytial virus, HEp-2; Table 1; RSV-infected Hep2 cells, 48 hours, syncytia counted; read-out: PRA (IC50)
property-label: IC50 (nM)
Value expressed in nM; do not type the unit.

[ask] Look at this compound and give its reported IC50. CC(C)N(Cc1nc2cccnc2n1Cc1nc2ccccc2[nH]1)C(C)C
[reply] 5

[ask] Look at this compound and give its reported IC50. CC(C)N(C)Cc1nc2cccnc2n1Cc1nc2ccccc2[nH]1
[reply] 3

[ask] Look at this compound and give its reported IC50. c1ccc2[nH]c(Cn3c(CNCCCN4CCOCC4)nc4cccnc43)nc2c1
[reply] 190

[ask] Look at this compound and give its reported IC50. c1ccc2[nH]c(Cn3c(CNCCN4CCOCC4)nc4cccnc43)nc2c1
[reply] 240

[ask] Look at this compound and give its reported IC50. CN1CCN(CCCNCc2nc3cccnc3n2Cc2nc3ccccc3[nH]2)CC1
[reply] 9

[ask] Look at this compound and give its reported IC50. COCCN(C)Cc1nc2cccnc2n1Cc1nc2ccccc2[nH]1
[reply] 150

[ask] Look at this compound and give its reported IC50. c1ccc2[nH]c(Cn3c(CNC4CCCC4)nc4cccnc43)nc2c1
[reply] 4

[ask] Look at this compound and give its reported IC50. CC(C)N(Cc1ccccc1)Cc1nc2cccnc2n1Cc1nc2ccccc2[nH]1
[reply] 5

[ask] Look at this compound and give its reported IC50. OCCN(CCO)CCCNCc1nc2cccnc2n1Cc1nc2ccccc2[nH]1
[reply] 190
